# credit: the NTF2 design screens of Basanta et al. (2020)

Please go through the items and note down their protease stability score.
experiment: protease stability score; higher = more stable; yeast display proteolysis, trypsin and chymotrypsin;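 note: relative to predicted unfolded state with 0 unfolded-like and 1 meaning tenfold more protease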
Give bare numbers.

1. SEEHEDIKKFLDDLHSAWNTGDWKALEHMLDPHVKFEINGRNFVGREEVRKLLEQIRLHPRSEIKDVRMQGEFVIVDGRVKIKINVNGREHHEVQEIILYLRKVNGKWYIEEIEIR = 1.54
2. NREDRELEDFIWEILEAWRTGDEDEHHRLLDPHTRHHFNGRVSHGREMVEYIFKQFDHIHRFEYRDFSVQGNKAHVFAQVDVRIGDKIITFDVTIEVEKVNGRWVLRELSIH = 1.31

Answer for every listed entry: what is its protease stability score? The entries follow.
1. HEEEEKVERYTRMYWNHLLTGDEDILQELMDPHARSTEIYGDFRIENHGRKAQHWLLRRIDHITSLRIHDVQIVDGVALVDSESDYRIGDKEIRVRTELIVHVVNGKIKSVSISVR
2. DEEEKEIKEMLHEYLRAVETGDEHTLHRLMDPHVRIDVNGRQVVGREEWLKILRELGIKVSELIFRDIKFQGDKVNIDAEERLHYNGRTVTTRVTITAWKYDGRWTVQSKKVD
3. DEEEKVEDDMLHRWLQYFLTGDEEHLLELADPRVRVRINGKDDHGMNAVERFWEEYRRKFKNVRIHIHDMRYYDGVIHVDGILQINGKTLKIEFIIVIVNGRIRFITENIR
4. SEDEEFMRHKSELYLEMLKTGDEEELERLFDPNVRLHIGDKNQHGREQFSHFFSKLHKELGVDHLSFEHIHLEVVNGRLIIIMRVHLHVGDKVHDREISIDASKVDGQWLVQSVHIHVR
5. DDREKFWKELAKEWFKSLITGDEDSLRKLLDPDVRTIVGDWHIHGMEEVLKFWLELRISDHDSKRIIVINGVNLNDIRSNGNVNGVERETRVELIIEVVDGRVRRVEFRMK
6. DEDTHMVERALTLLYKTLHTGDEDLYRELIDPHVRVEINGQELIGRELLIEWFREMVERFPNIRIEIHDIRLFDGRLESDSRLHYGDKSREVHLIARKVNGQWRLESLKVE

1. 0.896
2. 2.04
3. 1.73
4. 0.121
5. 2.01
6. 1.41

Answer for every listed entry: what is its protease stability score? The entries follow.
1. TEEEEHSKTLAEELLRVLLTGDEDTLHELFDPHARFHYGDKLHIGREEVTKALREVYERIDHYEVKHLEIQGDKVHVDGEHHIGDKSIRVRVHAWIVNGVVKQYHEHSL
2. DELETYSRRMFQLLLHIMETGDEEKWDHLADPNARLDIDGREFHGREIVSEVHSQIRSELGVDHHQITHFRLHTFDGKVEVEMEVIDKFDGRDVRSRIHIIVIKINGKWFLHEMSYDHG
3. DENKKAFEEAVSWFRHTSETGDEELFNDLVDPDTRTNYNGVSYHGWKEYEEYLRLIRELLGIKVVKHVHIHSVDVQGDFIHMDVELNLHYNGRERIERSHIRAFKVNGRWRMKSMIVV

[1.02, 1.35, 0.362]

---

Please go through the items and note down their protease stability score.
test: protease stability score; higher = more stable; yeast display proteolysis, trypsin and chymotrypsin;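 note: relative to predicted unfolded state with 0 unfolded-like and 1 meaning tenfold more protease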
One number for each entry.

Answer for every listed entry: what is its protease stability score? The entries follow.
1. DEDEETAIRVVKEFWKAVMTGDERHLKEYFDPHTRLDVDGQDQHGREDLTEFMFHMRVERTTIHNWRLQGDYVYLHVHVVGQINGKSKETEFYIVVFKINGRWSIHHITIR
2. DEEEKFSREVMELHIELWETGDEDTLTRLADPHAKFVLEWNGRNHTNHGMDVLIHMLHRLLKELGIKHTELRRKDVIGDKNHIHRRVIVNGVPTDLDLELVIIDGKLREYRIHIRIR
3. DEDHDVYHRLVKITLSLLATGDESWMKKLFDPHVRVNINGVDVHGREWLLKLFRLLLERLGVDHMTAHVHDFRQYDGRVHADTTEVYDVDGREIRFKTEVIIDKFNGRWFVTFVIII

1: 1.33; 2: 1.56; 3: 1.78
